system_under_test: FGFR2 (Homo sapiens (Human), UniProt P21802)
Sequence (P21802 22-821): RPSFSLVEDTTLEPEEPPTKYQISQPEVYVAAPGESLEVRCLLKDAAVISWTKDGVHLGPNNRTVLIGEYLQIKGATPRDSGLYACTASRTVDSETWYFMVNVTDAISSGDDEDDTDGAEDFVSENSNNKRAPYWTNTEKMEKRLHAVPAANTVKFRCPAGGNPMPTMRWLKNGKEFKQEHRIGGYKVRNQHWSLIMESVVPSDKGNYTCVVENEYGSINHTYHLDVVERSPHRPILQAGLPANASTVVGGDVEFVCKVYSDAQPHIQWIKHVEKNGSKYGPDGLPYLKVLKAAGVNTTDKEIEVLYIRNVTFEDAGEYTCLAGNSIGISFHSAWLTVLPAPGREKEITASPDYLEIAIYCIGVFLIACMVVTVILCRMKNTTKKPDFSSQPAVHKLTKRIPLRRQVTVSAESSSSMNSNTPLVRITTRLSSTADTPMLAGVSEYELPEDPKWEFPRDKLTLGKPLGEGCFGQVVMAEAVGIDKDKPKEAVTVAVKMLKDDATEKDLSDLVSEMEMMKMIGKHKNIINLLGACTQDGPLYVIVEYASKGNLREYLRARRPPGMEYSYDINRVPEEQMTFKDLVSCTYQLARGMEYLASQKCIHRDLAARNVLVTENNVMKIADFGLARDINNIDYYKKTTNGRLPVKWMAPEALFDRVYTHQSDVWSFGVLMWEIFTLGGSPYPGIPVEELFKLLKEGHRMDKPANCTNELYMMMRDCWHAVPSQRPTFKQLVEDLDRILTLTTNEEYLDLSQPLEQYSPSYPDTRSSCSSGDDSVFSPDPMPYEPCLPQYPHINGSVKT
assay_info: FGFR2 Biochemical Caliper Assay
measure_name: IC50

Example molecules with recorded IC50:
molecule: C=CC(=O)N1CCC(n2cc(-c3c(-c4ccc(Oc5cnccn5)cc4)c4c(N)ncnc4n3C)cn2)CC1
readout_value: 250 to 1000 nM

molecule: C/C=C/C(=O)N1CCC(n2cc(-c3c(-c4ccc(Oc5cccc(C)n5)cc4)c4c(N)ncnc4n3C)cn2)CC1
readout_value: 100 to 250 nM

molecule: C=C(C)C(=O)Nc1ccc(-c2c(-c3ccc(Oc4nccc(C)n4)cc3F)c3c(N)ncnc3n2C)cc1
readout_value: < 100 nM

molecule: C=C(C)C(=O)Nc1ccc(-c2c(-c3ccc(C(=O)N4CC5CC4C5)cc3)c3c(N)ncnc3n2C)cc1
readout_value: < 100 nM

molecule: Cn1c(-c2ccc(NC(=O)C3=CCCC3)cc2)c(-c2ccc(C(=O)N3CCCC3)cc2)c2c(N)ncnc21
readout_value: 1000 to 100000 nM

(Q) May I ask what IC50 has been recorded for C=C(C)C(=O)Nc1ccc(-c2c(-c3ccc(C(=O)N4CCCCCC4)cc3)c3c(N)ncnc3n2C)cc1 ?
(A) < 100 nM

(Q) Same question, C=C(C)C(=O)Nc1ccc(-c2c(-c3ccc(C(=O)NCC(C)C)cc3)c3c(N)ncnc3n2C)cc1 this time
(A) < 100 nM

(Q) Same question, C=C(C)C(=O)Nc1ccc(-c2c(-c3ccc(C(=O)N4CCC[C@H](OC)C4)cc3)c3c(N)ncnc3n2C)cc1 this time
(A) 1000 to 100000 nM

(Q) Same question, C=CC(=O)N1CCC(n2nc(-c3c(-c4ccc(Oc5cccc(C)n5)c(OC)c4)c4c(N)ncnc4n3C)cc2C)CC1 this time
(A) 1000 to 100000 nM

(Q) Same question, CCC(=O)N1CCC(n2cc(-c3c(-c4ccc(Oc5ccccc5)cc4)c4c(N)ncnc4n3C)cn2)CC1 this time
(A) 100 to 250 nM
